test: self-splicing fitness, log relative to wild type (ln ratio); higher = more splicing; Tetrahymena group I intron in knt gene, E. coli kanamycin selection, DiMSum; sequences stand for … in CUCUCU…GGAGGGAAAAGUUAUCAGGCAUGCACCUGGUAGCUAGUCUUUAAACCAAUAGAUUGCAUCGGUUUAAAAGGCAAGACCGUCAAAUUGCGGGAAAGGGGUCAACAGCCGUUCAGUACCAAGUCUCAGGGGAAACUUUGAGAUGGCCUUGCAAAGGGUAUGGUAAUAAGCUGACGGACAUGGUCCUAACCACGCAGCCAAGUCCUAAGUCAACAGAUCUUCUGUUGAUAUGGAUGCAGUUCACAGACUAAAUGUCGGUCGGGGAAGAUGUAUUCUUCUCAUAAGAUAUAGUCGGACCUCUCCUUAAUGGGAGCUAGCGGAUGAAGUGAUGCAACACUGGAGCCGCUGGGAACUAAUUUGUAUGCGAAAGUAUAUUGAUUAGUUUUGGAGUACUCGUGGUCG; details: 37 °C;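 also: selection with 25 µg/mL kanamycin versus none on LB agar overnight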
self-splicing fitness (ln) of -2 or higher: criterion met. Under -2: criterion not met.

Enquiry: Can AGAGAGCAAUAUUACGGGCG be said to have self-splicing fitness (ln) at or above -2?
Return: criterion not met

Enquiry: Can CCAAAGCAAUAUUACGAACC be said to have self-splicing fitness (ln) at or above -2?
Return: criterion met

Enquiry: Can AUCAAGCAAUAUUACGUGUG be said to have self-splicing fitness (ln) at or above -2?
Return: criterion met

Enquiry: Can CCUGAGCAAUAUUACGCGAG be said to have self-splicing fitness (ln) at or above -2?
Return: criterion not met

Enquiry: Can GGUUAGCAAUAUUACGCAAA be said to have self-splicing fitness (ln) at or above -2?
Return: criterion not met

Enquiry: Can CUUCAGCAAUAUUACGUAAG be said to have self-splicing fitness (ln) at or above -2?
Return: criterion met

Enquiry: Can AAUAAGCAAUAUUACGUGGG be said to have self-splicing fitness (ln) at or above -2?
Return: criterion not met

Enquiry: Can UUUCAGCAAUAUUACGCUGU be said to have self-splicing fitness (ln) at or above -2?
Return: criterion not met

Enquiry: Can ACCAAGCAAUAUUACGCUCA be said to have self-splicing fitness (ln) at or above -2?
Return: criterion met

Enquiry: Can UAUGAGCAAUAUUACGUCGG be said to have self-splicing fitness (ln) at or above -2?
Return: criterion not met

Enquiry: Can AGGAAGCAAUAUUACGGCCA be said to have self-splicing fitness (ln) at or above -2?
Return: criterion met

Enquiry: Can UGGAAGCAAUAUUACGUACU be said to have self-splicing fitness (ln) at or above -2?
Return: criterion met

Enquiry: Can UCCCAGCAAUAUUACGUCCG be said to have self-splicing fitness (ln) at or above -2?
Return: criterion not met

Enquiry: Can AUUCAGCAAUAUUACGCUCC be said to have self-splicing fitness (ln) at or above -2?
Return: criterion met

Enquiry: Can GUGCAGCAAUAUUACGCGGC be said to have self-splicing fitness (ln) at or above -2?
Return: criterion not met

Enquiry: Can CUGCAGCAAUAUUACGUGGA be said to have self-splicing fitness (ln) at or above -2?
Return: criterion not met

Reference source: the supplement of paper PMC7877785
